# tested_on: glycine-binding site of the NMDA receptor channel (Rattus norvegicus, UniProt P35439)
# experiment_summary: Receptor binding (glycine-binding site of the NMDA receptor channel), displacement of (3H)-MDL 105.519
# cond: rat cortex and hippocampus membrane homogenate; ligand 1 nmol/l (3H)-MDL 105.519; converted from IC50 by Cheng-Prussoff; mean of three independent tests
parameter_measured: Ki (nM)
Express your answer in nM, writing the number without its unit.

Q. State its Ki for this compound: O=C(O)C1Nc2cc(Cl)cc(Cl)c2C2c3ccccc3OC12 (stereo not shown)
A. 53
